B1: mRNA-splicing (parent)
chain: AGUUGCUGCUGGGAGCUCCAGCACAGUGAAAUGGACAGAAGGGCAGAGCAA

variants of: B1; test: exon inclusion enrichment index; higher = more inclusion; WT1 exon 5 minigene, HEK293
Decision: exon inclusion enrichment index >= 1 yields T, all other cases yield F.

[ask] Quick check, exon inclusion enrichment index >= 1? C6A U7A C9A U10A U27G G28U
[reply] F

[ask] Quick check, exon inclusion enrichment index >= 1? C44A A45G
[reply] F

[ask] Quick check, exon inclusion enrichment index >= 1? G5C C6A U7C G8A U10A G21U C22G
[reply] F

[ask] Quick check, exon inclusion enrichment index >= 1? G5A U7C G8A U10C C18U C19A
[reply] F

[ask] Quick check, exon inclusion enrichment index >= 1? C9A
[reply] T

[ask] Quick check, exon inclusion enrichment index >= 1? G5A C6G U7G C9A A25G G26C
[reply] F

[ask] Quick check, exon inclusion enrichment index >= 1? G5C C6A U7C G8A U10A G34U A35C
[reply] F

[ask] Quick check, exon inclusion enrichment index >= 1? A29G A30C
[reply] F

[ask] Quick check, exon inclusion enrichment index >= 1? C24U
[reply] F

[ask] Quick check, exon inclusion enrichment index >= 1? C6A U7A C9A U10A G11U G12U
[reply] T

[ask] Quick check, exon inclusion enrichment index >= 1? G5C C6G U7C U10C G28A A29C
[reply] T

[ask] Quick check, exon inclusion enrichment index >= 1? G5C C6G U7C U10C A47U G48A
[reply] T

[ask] Quick check, exon inclusion enrichment index >= 1? C9A U10C
[reply] T

[ask] Quick check, exon inclusion enrichment index >= 1? G5A C6G U7G C9A U10A
[reply] F

[ask] Quick check, exon inclusion enrichment index >= 1? G5A C6U U7A G8U C9A A37C G38C
[reply] F

[ask] Quick check, exon inclusion enrichment index >= 1? G5U G8U C9U A14C
[reply] F

[ask] Quick check, exon inclusion enrichment index >= 1? C6A U7C C9A U10C U27A G28U
[reply] T

Recorded values, source the RNAGym collection of RNA variant scans (doi:10.1101/gr.219683.116).
